# Tested on: BT-549 breast
# assay notes: NCI-60 one-dose screen, 48 h (100 = growth as untreated, 0 = no growth, -100 = all killed)
# cond: 10 µM unless noted
Compounds without any hit were thinned out: in the full panel of roughly 83,000, 20% have a hit.
Consider the following compounds; for each one, report its growth.
One number for each entry, in %.

These recorded examples may help you get a feel for the data.
compound: CN1CCN(c2ccc(-c3ccc4ncc(C#N)c(Nc5ccc(F)c(Cl)c5)c4c3)cn2)CC1
reported endpoint: growth
observed: 60.3
//
compound: C#C[C@]1(O)CC[C@H]2[C@@H]3CC=C4c5sc(Nc6ccccc6)nc5CC[C@]4(C)[C@H]3CC[C@@]21C
reported endpoint: growth
observed: 19.9
//
compound: CC1CN(C2CCCCC2)C(=S)N(c2ccccc2)C1=O (centres undefined)
reported endpoint: growth
observed: 108
//
compound: CCOC(=O)c1[nH]c(C)c(C(=O)OCc2ccccc2C#N)c1C
reported endpoint: growth
observed: 50.5
//
compound: O=C1/C(=C/c2ccc(F)cc2)Sc2c(Br)cccc21
reported endpoint: growth
observed: 87
//
compound: O=C1c2cccc3cccc(c23)C(=O)N1Nc1nc(NC2CCCCC2)nc(N2CCOCC2)n1
reported endpoint: growth
observed: 110
//
compound: O=C1NC(=O)C(c2ccccc2)(c2ccccc2)N1Cc1cn(-c2c3ccccc3nc3ccccc23)nn1
reported endpoint: growth
observed: 81.5
//
compound: O=c1c2cc(F)ccc2sc2c(NCCCNCCO)nc3ccccc3c12
reported endpoint: growth
observed: 66.2

Next compound, please.
INPUT: State growth (BT-549 breast) of COc1cc2cc(Oc3ccc(NC(=O)Nc4ccc(F)c(C(F)(F)F)c4)cc3)c(C)nc2cc1OCCN1CCOCC1 .
OUTPUT: 40.3

* * *

# System: T-47D breast
# assay notes: NCI-60 one-dose screen, 48 h (100 = growth as untreated, 0 = no growth, -100 = all killed)
# cond: 10 µM unless noted
Compounds without any hit were thinned out: in the full panel of roughly 83,000, 20% have a hit.
Classes by growth: bucket A = under 40%, bucket B = from 40% up to 90%, bucket C = 90% and over

compound: O=C(COc1ccc(/C=C2\Cc3ccc(Cl)cc3C2=O)cc1)Nc1nc2ccccc2s1
target entity: T-47D breast
group label: bucket C
--
compound: O=c1c2cc(F)ccc2sc2c(NCCN3CCOCC3)nc3ccccc3c12
target entity: T-47D breast
group label: bucket B
--
compound: COc1ccc(/C=C2\Oc3cc(OCCN4CCC(Cc5ccccc5)CC4)ccc3C2=O)cc1OC
target entity: T-47D breast
group label: bucket B

INPUT: Assign a bin to O=C(CCN1C(=O)/C(=C/c2ccc(O)cc2)SC1=S)Nc1ccccc1
OUTPUT: bucket C

INPUT: Assign a bin to CC(C)(C)NC(=O)C(OC(=O)c1cccc(Cl)c1)c1ccc(Cl)cc1 (stereo unspecified)
OUTPUT: bucket C

INPUT: Assign a bin to CCOC(=O)c1cn2ncnc(Oc3ccc(NC(=O)NCCN4CCN(C)CC4)c(Cl)c3)c2c1C
OUTPUT: bucket A

INPUT: Assign a bin to N#C/C(=C\c1ccc(F)cc1)n1nc2cccc(F)c2n1
OUTPUT: bucket A

INPUT: Assign a bin to CC(=O)OC[C@H]1OC(Sc2sc(C(=O)c3ccc(Br)cc3)c(N)c2-c2nc3ccccc3s2)[C@H](OC(C)=O)[C@@H](OC(C)=O)[C@H]1OC(C)=O (stereo partly specified)
OUTPUT: bucket B

INPUT: Assign a bin to Cc1onc2c(-c3ccccc3)n[nH]c(=O)c12
OUTPUT: bucket B

INPUT: Assign a bin to Cc1cccc2c3c(sc12)C(c1ccc(F)cc1)C(C#N)=C(N)O3 (stereo unspecified)
OUTPUT: bucket B

INPUT: Assign a bin to NCCNc1nc2ccccc2c2c(=O)c3cccc(F)c3sc12
OUTPUT: bucket B

INPUT: Assign a bin to COc1ccc(C(Cc2ccccc2)NCCN2CCOCC2)cc1 (stereo unspecified)
OUTPUT: bucket B

* * *

Consider the following molecules; for each one, report its growth.
# Test system: HS 578T breast
# assay notes: NCI-60 one-dose screen, 48 h (100 = growth as untreated, 0 = no growth, -100 = all killed)
# cond: 10 µM unless noted
About 83,000 compounds went through this panel and 20% of them were active in at least one assay; those are over-represented in the sample as a whole.
One number for each entry, in %.

molecule: CCCCCCNC(=O)Oc1ccc(/C(=C(\C)c2ccc(Cl)cc2)c2ccc(OCCCN(C)C)cc2)cc1
reported endpoint: growth
unit descriptor: %
observed: 74.5

Each of the following entries comes with a recorded value; kindly state growth for each.
1. CC/C=C\C[C@@H]1C/C=C2/C(=O)C=C[C@H]2C/C=C\CCCC(=O)O1
2. N[C@@H](Cc1ccccc1)[C@@H](O)C(=O)NCc1ccc(F)cc1

OUTPUT:
1. -1.47
2. 104

Each of the following entries comes with a recorded value; kindly state growth for each.
1. COC1=C(C)C(=O)c2c(c(CCCl)c3n2CCC3OC(C)=O)C1=O (stereo not given)
2. OC(c1ccccc1)C(NC(Cc1ccccc1)c1ccccc1)c1ccccc1 (stereo not given)
3. COc1c(C2CC(=O)Nc3c2c(C)nn3-c2nc3ccccc3[nH]2)cc2c(c1OC)OCO2 (stereo not given)
4. Cc1cc(=O)oc2cc(OC(=O)N3CCN(C)CC3)ccc12

OUTPUT:
[-22.9, 92.2, 28.3, 99.4]

* * *

# Test system: DU-145 prostate
# assay notes: NCI-60 one-dose screen, 48 h (100 = growth as untreated, 0 = no growth, -100 = all killed)
# cond: 10 µM unless noted
This is part of a sample that, as a whole, favours compounds with a hit. Of some 83,000 tested, about 20% had one in any assay.
Consider the following compounds; for each one, report its growth.
Give bare numbers, in %.

compound: Cc1cc(=O)oc2cc(OC(=O)CN3CCN(C)CC3)ccc12
growth (%): 109
//
compound: O=c1c2cc(F)ccc2sc2c(N3CCCCC3)nc3ccccc3c12
growth (%): 107
//
compound: CC1Cc2ccccc2N1NC(=O)c1ccc(Cl)c(S(N)(=O)=O)c1 (stereo not given)
growth (%): 108
//
compound: CCOC(=O)c1cn2ncnc(Oc3ccc(NC(=O)NCCN4CCN(C)CC4)c(Cl)c3)c2c1C
growth (%): 81.2

Each of the following entries comes with a recorded value; kindly state growth for each.
1. CN(C)c1ccc2nc3ccc(=[N+](C)C)c([N+](=O)[O-])c-3sc2c1
2. COc1cc(C(=O)/C=C/c2sc(Cl)nc2Cl)cc(OC)c1OC
3. CCOC(=O)C1=C(N)Oc2c(sc3c(C)cccc23)C1c1ccc(OC)cc1 (stereo not given)
4. Cc1oc2nc[nH]c(=O)c2c1C(=O)/C=C/c1ccc(Br)cc1
5. CCCCCCN(CCCCCC)c1ccc(/C=C2/SC(=O)NC2=O)c(C)c1

OUTPUT:
[54, 43.5, 50.5, 5.67, 102]

INPUT: Name the recorded growth of the compound listed here: CCCCNC(=O)Oc1ccc(/C(=C(\C)c2ccc(Cl)cc2)c2ccc(OCCN3CCCCC3)cc2)cc1
OUTPUT: 90.4

* * *

# Test system: ACHN renal
# assay notes: NCI-60 one-dose screen, 48 h (100 = growth as untreated, 0 = no growth, -100 = all killed)
# cond: 10 µM unless noted
About 83,000 compounds went through this panel and 20% of them were active in at least one assay; those are over-represented in the sample as a whole.
reported endpoint: growth (%)
Give bare numbers, in %.

These recorded examples may help you get a feel for the data.
compound: OC(COc1ccccc1)CN1CCN(c2ccc(Cl)cc2)CC1 (stereo unspecified)
reported endpoint: growth
observed: 107
--
compound: COc1ccc(/C=N/Nc2cc(=O)[nH]c3ccc(Cl)cc23)cc1
reported endpoint: growth
observed: 72.7
--
compound: COc1cc(Nc2cn[nH]c2-c2ccc(Cl)cc2)cc(OC)c1OC
reported endpoint: growth
observed: 71.1
--
compound: Cc1ccc(C(=O)N/N=C/c2cccc([N+](=O)[O-])c2)cn1
reported endpoint: growth
observed: 107
--
compound: Nc1nc2ccccc2c2c(=O)c3cc(F)ccc3sc12
reported endpoint: growth
observed: 101
--
compound: O=C(Cc1ccc(F)c(Cl)c1)Nc1cc(C2(C(F)(F)F)CC2)nn1CC1CCCCC1
reported endpoint: growth
observed: -7.99
--
compound: COc1cccc(Cc2nn3cc(-c4ccccc4)nc3s2)c1
reported endpoint: growth
observed: 96
--
compound: CN(C)CC#Cc1ccc2ncc(C#N)c(Nc3ccc(F)c(Cl)c3)c2c1
reported endpoint: growth
observed: 10.5
--
compound: O=c1c2cc(F)ccc2sc2c(NCCO)nc3ccccc3c12
reported endpoint: growth
observed: 103
--
compound: O=C(N/N=C/[C@@H](O)[C@H](O)[C@H](O)CO)c1ccc(NC(=O)c2cccnc2)cc1
reported endpoint: growth
observed: 101

Each of the following entries comes with a recorded value; kindly state growth for each.
1. Cc1ccc2nc(NC(=O)CSc3nc(Cl)c(C#N)c(-c4ccccc4)n3)sc2c1
2. COc1cccc2nc3n(c12)C(c1c(F)cccc1F)SC3 (stereo unspecified)
3. CCCCCCCCCCCCCCCCCCOc1ccccc1CCCOP(=O)(O)OCC[N+](C)(C)C
4. CC1(C)C2CC1C1(/C=N/NC(N)=S)C(C2)C(C#N)(C#N)C1(C#N)C#N (stereo unspecified)
5. O=C(Nc1ccc(Br)cc1F)c1cc(Br)ccc1O
6. Cc1cc(N2CCCC2)nc(N(CCCNc2ccnc3cc(Cl)ccc23)Cc2ccccn2)n1
7. O=[N+]([O-])c1ccc(Oc2nc(Nc3ccc(O[C@H]4CO[C@H]5[C@@H]4OC[C@@H]5O)c(Cl)c3)ncc2F)c(Cl)c1
8. O=C(O)CCC(=O)Nc1nnc(-c2ccccc2)s1

OUTPUT:
1. 102
2. 92.7
3. 84.5
4. 44.8
5. -0.439
6. 80.8
7. 19.3
8. 109
